test: Clearance in Sprague-Dawley rat at 5 mg/kg, po; assay type: ADME, organism-based; set-up: dose 5 mg/kg, route oral; settings: in vivo
quantity: log10 of CL/F (log10 of the value in mL/min/kg)
The base-10 logarithm of CL/F, taken with CL/F in mL/min/kg, is what appears here.

# input compound: NCC1(O)CN(C(=O)c2ccc(F)c(F)c2Nc2ccc(I)cc2F)C1 ; wanted: its log10 of CL/F
1.10

Give the measured log10 of CL/F of CCNCC1(O)CN(C(=O)c2ccc(F)c(F)c2Nc2ccc(I)cc2F)C1 .
1.54

What log10 of CL/F value was documented for this compound, CC(C)NCC1(O)CN(C(=O)c2ccc(F)c(F)c2Nc2ccc(I)cc2F)C1 ?
2.00

Request the reported log10 of CL/F associated with C[C@H](N)C1(O)CN(C(=O)c2ccc(F)c(F)c2Nc2ccc(I)cc2F)C1
1.12

# input compound: O=C(c1ccc(F)c(F)c1Nc1ccc(I)cc1F)N1CC(O)([C@@H]2CCCCN2)C1 ; wanted: its log10 of CL/F
1.77

// returns reported log10 of CL/F for input O=C(c1ccc(F)c(F)c1Nc1ccc(I)cc1F)N1CC(O)C1
2.14

====

Record form. Attribute: half-life. Fill in for each entry.
assay: Half life in Sprague-Dawley rat at 5 mg/kg, po; format: ADME, organism-based; set-up: dose 5 mg/kg, route oral; conditions: in vivo
Record the value in h, omitting the unit from your answer.

# query: half-life of entry C[C@H](N)C1(O)CN(C(=O)c2ccc(F)c(F)c2Nc2ccc(I)cc2F)C1
11.4

What value of measured half-life is listed for O=C(c1ccc(F)c(F)c1Nc1ccc(I)cc1F)N1CC(O)([C@@H]2CCCCN2)C1 ?
6.1

So what does the record say about half-life for CCNCC1(O)CN(C(=O)c2ccc(F)c(F)c2Nc2ccc(I)cc2F)C1 ?
5.4

Which value of half-life has been reported for O=C(c1ccc(F)c(F)c1Nc1ccc(I)cc1F)N1CC(O)C1 in the records?
1.5

Entry CC(C)NCC1(O)CN(C(=O)c2ccc(F)c(F)c2Nc2ccc(I)cc2F)C1 has what half-life?
4.9

I would be grateful if you could share the reported half-life for NCC1(O)CN(C(=O)c2ccc(F)c(F)c2Nc2ccc(I)cc2F)C1 .
9.1

====

assay: Plasma concentration in nude NCr mouse xenografted with human MDA-MB-231T cells at 30 mg/kg, po measured after 2 hrs by LC-MS analysis; type: ADME, organism-based; design: dose 30 mg/kg, route oral
quantity: concentration at 2 h (nM)
Numeric only. Scale: nM

concentration at 2 h lookup needed for NCC1(O)CN(C(=O)c2ccc(F)c(F)c2Nc2ccc(I)cc2F)C1 , thanks.
2400

====

test: Drug uptake in brain of nude NCr mouse xenografted with human MDA-MB-231T cells at 5 mg/kg, po measured after 24 hrs by LC-MS analysis; assay type: ADME, organism-based; design: dose 5 mg/kg, route oral; conditions: read-out: Drug uptake
quantity: concentration at 24 h

Looking for the measured concentration at 24 h of O=C(c1ccc(F)c(F)c1Nc1ccc(I)cc1F)N1CC(O)([C@@H]2CCCCN2)C1 , can you help?
< 4 nM

====

target: Dual specificity mitogen-activated protein kinase kinase; MEK1/2 (Homo sapiens, UniProt P36507+Q02750)
quantity: log10 IC50 (log10 of the value in nM)
Scale: decimal log of IC50, IC50 in nM.

Entry O=C(c1ccc(F)c(F)c1Nc1ccc(I)cc1F)N1CC(O)([C@@H]2CCCCN2)C1 [COBIMETINIB] : reported log10 IC50 = ?
-0.70

I have this molecule here, O=C(c1ccc(F)c(F)c1Nc1ccc(I)cc1F)N1CC(O)(CN2CCCC2)C1 , and I need its recorded log10 IC50.
1.70

What does the data say about its log10 IC50? Entry: O=C(c1ccc(F)c(F)c1Nc1ccc(I)cc1F)N1CC(O)(CN2CCOCC2)C1
2.52

Which measured log10 IC50 value corresponds to C[C@@H](N)C1(O)CN(C(=O)c2ccc(F)c(F)c2Nc2ccc(I)cc2F)C1 ?
2.21

Need log10 IC50, item O=C(O)c1ccc(F)c(F)c1Nc1ccc(I)cc1F
2.01

Requested read-out: log10 IC50. Entry: O=C(NCCC(O)CO)c1ccc(F)c(F)c1Nc1ccc(I)cc1F (configuration not stated)
2.11

What value of measured log10 IC50 is listed for O=C(c1ccc(F)c(F)c1Nc1ccc(I)cc1F)N1CC(O)(CO)C1 ?
1.46

Looking for the measured log10 IC50 of C[C@H](N)C1(O)CN(C(=O)c2ccc(F)c(F)c2Nc2ccc(I)cc2F)C1 , can you help?
1.66

Requested field: log10 IC50. Item: NC(=O)C1(O)CN(C(=O)c2ccc(F)c(F)c2Nc2ccc(I)cc2F)C1
1.91

I am curious: what log10 IC50 value has been reported for NCC1(O)CN(C(=O)c2ccc(F)c(F)c2Nc2ccc(I)cc2F)C1 ?
1.76

Which log10 IC50 is reported for this molecule? CN(C)CC1(O)CN(C(=O)c2ccc(F)c(F)c2Nc2ccc(I)cc2F)C1
1.15

# log10 IC50 lookup, item CC(C)(C)NCC1(O)CN(C(=O)c2ccc(F)c(F)c2Nc2ccc(I)cc2F)C1
1.04

====

Task for the reader: assign each of the following molecules its reported IC50.
I'd appreciate it if you wrote the number followed by its unit.

Dual specificity mitogen-activated protein kinase kinase 1 (Homo sapiens, UniProt Q02750) / IC50 / O=C(c1ccc(F)c(F)c1Nc1ccc(I)cc1F)N1CC(O)(CN2CCOCC2)C1 : value?
1710 nM

Under Dual specificity mitogen-activated protein kinase kinase 1 (Homo sapiens, UniProt Q02750): IC50 value of O=C(NCCC(O)CO)c1ccc(F)c(F)c1Nc1ccc(I)cc1F (configuration not stated) ?
801 nM

Give IC50 (Dual specificity mitogen-activated protein kinase kinase 1 (Homo sapiens, UniProt Q02750)) of the following molecule: NCC1(O)CN(C(=O)c2ccc(F)c(F)c2Nc2ccc(I)cc2F)C1
6.6 nM

Short answer please: IC50, Dual specificity mitogen-activated protein kinase kinase 1 (Homo sapiens, UniProt Q02750), entry O=C(c1ccc(F)c(F)c1Nc1ccc(I)cc1F)N1CC(O)(CN2CCCC2)C1
7.6 nM

Find the measured IC50: item C[C@H](N)C1(O)CN(C(=O)c2ccc(F)c(F)c2Nc2ccc(I)cc2F)C1 , target or system Dual specificity mitogen-activated protein kinase kinase 1 (Homo sapiens, UniProt Q02750).
5.2 nM

Dual specificity mitogen-activated protein kinase kinase 1 (Homo sapiens, UniProt Q02750) / IC50 / O=C(c1ccc(F)c(F)c1Nc1ccc(I)cc1F)N1CC(O)(CO)C1 : value?
27 nM

Could you share what IC50 was measured for NC(=O)C1(O)CN(C(=O)c2ccc(F)c(F)c2Nc2ccc(I)cc2F)C1 , tested on Dual specificity mitogen-activated protein kinase kinase 1 (Homo sapiens, UniProt Q02750)?
220 nM

Fill in the recorded IC50 for this molecule, with Dual specificity mitogen-activated protein kinase kinase 1 (Homo sapiens, UniProt Q02750) as test system: O=C(O)c1ccc(F)c(F)c1Nc1ccc(I)cc1F
Sequence (Q02750 whole entry): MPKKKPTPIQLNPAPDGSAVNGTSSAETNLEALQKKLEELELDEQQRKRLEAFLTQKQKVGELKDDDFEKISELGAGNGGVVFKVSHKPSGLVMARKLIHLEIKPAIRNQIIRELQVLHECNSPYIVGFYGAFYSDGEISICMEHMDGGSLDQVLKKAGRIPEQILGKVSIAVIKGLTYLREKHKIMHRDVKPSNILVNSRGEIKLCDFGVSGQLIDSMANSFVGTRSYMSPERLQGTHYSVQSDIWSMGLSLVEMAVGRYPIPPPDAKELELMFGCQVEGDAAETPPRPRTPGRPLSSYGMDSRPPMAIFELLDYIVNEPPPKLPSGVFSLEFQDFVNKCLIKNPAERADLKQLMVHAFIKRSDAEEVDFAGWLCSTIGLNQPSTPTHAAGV
19.5 nM

Item CN(C)CC1(O)CN(C(=O)c2ccc(F)c(F)c2Nc2ccc(I)cc2F)C1 with Dual specificity mitogen-activated protein kinase kinase 1 (Homo sapiens, UniProt Q02750) - IC50?
5.1 nM

Give the reported IC50 for CC(C)(C)NCC1(O)CN(C(=O)c2ccc(F)c(F)c2Nc2ccc(I)cc2F)C1 (system: Dual specificity mitogen-activated protein kinase kinase 1 (Homo sapiens, UniProt Q02750)).
4.8 nM

Which IC50 is reported with Dual specificity mitogen-activated protein kinase kinase 1 (Homo sapiens, UniProt Q02750) for this entry: C[C@@H](N)C1(O)CN(C(=O)c2ccc(F)c(F)c2Nc2ccc(I)cc2F)C1 ?
16 nM

Request: IC50, test system Dual specificity mitogen-activated protein kinase kinase 1 (Homo sapiens, UniProt Q02750), entry O=C(c1ccc(F)c(F)c1Nc1ccc(I)cc1F)N1CC(O)([C@@H]2CCCCN2)C1 [COBIMETINIB]
0.9 nM

====

assay: Drug uptake in tumor of nude NCr mouse xenografted with human MDA-MB-231T cells at 30 mg/kg, po measured after 24 hrs by LC-MS analysis; assay type: ADME, organism-based, Neoplasm; parameters: dose 30 mg/kg, route oral; details: read-out: Drug uptake
quantity: concentration at 24 h (µM)
Give the value in µM but do not write µM after it.

What value of measured concentration at 24 h is listed for NCC1(O)CN(C(=O)c2ccc(F)c(F)c2Nc2ccc(I)cc2F)C1 ?
26.9

====

test: Drug uptake in tumor of nude NCr mouse xenografted with human MDA-MB-231T cells at 20 mg/kg, po measured after 24 hrs by LC-MS analysis; format: ADME, organism-based, Neoplasm; design: dose 20 mg/kg, route oral; conditions: read-out: Drug uptake
quantity: concentration at 24 h
Answers without a unit are incomplete; give the number and then its unit.

// query concentration at 24 h value for entry O=C(c1ccc(F)c(F)c1Nc1ccc(I)cc1F)N1CC(O)([C@@H]2CCCCN2)C1
3.59 µM
